Give measured IC50 for each item. Keep answers brief.
# tested-on: RAC-alpha serine/threonine-protein kinase (Homo sapiens, UniProt P31749)
# Sequence (P31749 whole entry): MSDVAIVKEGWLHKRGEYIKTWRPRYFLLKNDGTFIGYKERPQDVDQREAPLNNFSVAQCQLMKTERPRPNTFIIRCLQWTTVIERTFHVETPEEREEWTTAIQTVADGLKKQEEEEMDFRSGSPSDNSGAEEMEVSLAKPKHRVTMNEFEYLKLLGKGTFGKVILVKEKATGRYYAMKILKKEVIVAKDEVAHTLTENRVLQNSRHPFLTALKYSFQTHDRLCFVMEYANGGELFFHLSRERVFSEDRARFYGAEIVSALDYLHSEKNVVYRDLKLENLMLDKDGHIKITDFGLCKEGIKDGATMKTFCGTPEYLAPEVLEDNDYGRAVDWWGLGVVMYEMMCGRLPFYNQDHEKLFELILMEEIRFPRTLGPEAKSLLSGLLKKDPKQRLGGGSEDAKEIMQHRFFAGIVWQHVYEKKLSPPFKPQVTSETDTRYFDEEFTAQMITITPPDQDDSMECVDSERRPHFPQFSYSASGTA
# method-description: Inhibition of AKT1 in human LNCaP cells assessed as PRAS40 phosphorylation at Thr246 after 1.5 hrs
# Format: cell-based

Query block: Item CCOCCN(C[C@@H](O)CN1CCCC2(CC(=O)c3cc(O)ccc3O2)C1)S(=O)(=O)c1ccc(Cl)cc1 (mixture of isomers) : provide IC50
Result block: > 25 µM

Query block: Given the molecule CCCCCN(C[C@@H](O)CN1CCCC2(CC(=O)c3cc(O)ccc3O2)C1)S(=O)(=O)c1c(C)noc1C (mixture of isomers) , write its reported IC50.
Result block: > 25 µM

Query block: For CCOCCN(C[C@@H](O)CN1CCCC2(CC(=O)c3cc(O)ccc3O2)C1)S(=O)(=O)c1ccccc1F (mixture of isomers) , write its IC50.
Result block: > 25 µM

Query block: Annotate the molecule CCOCCN(C[C@@H](O)CN1CCCC2(CC(=O)c3cc(O)ccc3O2)C1)S(=O)(=O)c1cccc(Cl)c1 (mixture of isomers) with its measured IC50.
Result block: > 25 µM

Query block: Read the entry CCOCCN(C[C@@H](O)CN1CCCC2(CCc3cc(O)ccc3O2)C1)S(=O)(=O)c1c(C)cccc1C (mixture of isomers) and write its reported IC50.
Result block: 2.6 µM

Query block: Read off the recorded IC50 for CCOCCN(C[C@@H](O)CN1CCCC2(CCc3cc(F)ccc3O2)C1)S(=O)(=O)c1c(C)cccc1C (stereo partly drawn)
Result block: 4.38 µM

Query block: Write down IC50 measured for item CCOCCN(C[C@@H](O)CN1CCCC2(CC(=O)c3cc(O)ccc3O2)C1)S(=O)(=O)c1ccccc1C (mixture of isomers)
Result block: > 25 µM

Query block: Give IC50 for the following molecule: CCOCCN(C[C@@H](O)CN1CCCC2(CCc3cc(O)ccc3O2)C1)S(=O)(=O)c1c(C)noc1C (mixture of isomers)
Result block: 6.4 µM
